Tested on: β-galactosidase in CMV-LacZ C2C12 myotubes
Assay Overview: CMV-LacZ secondary screen in C2C12 myotubes (β-Gal stabilizing assay)
Assay type: cell-based, mouse
Experimental Parameters: 20 uM; C2C12 CMV-LacZ myotubes; fold relative to DMSO
Assay Endpoint: CMV-LACZ in Myotubes, signal relative to DMSO
// no unit, no text: just the number

CC1Cc2ccccc2N1C(=O)CSc1nnc(N)s1 (centres unmarked) :: 1.0240
Cc1noc(C)c1COc1ccc(C(=O)NCCc2ccccn2)cc1 :: 1.1689
O=C(O)c1csc(-c2cccs2)n1 :: 0.9482
Cn1c(-c2ccccc2)cc2ccccc21 :: 0.8700

Next, consider the following molecule.
Task: Notebook entry, β-galactosidase in CMV-LacZ C2C12 myotubes assay: CMV-LACZ in Myotubes, signal relative to DMSO of Nc1ncnc(N2CCc3ccccc32)c1[N+](=O)[O-] = ?
Result: 0.8835

// provenance: patent US9980943B2
